# assayExplanation: MTT assay, toxicity on HDFa cells
# Type: cell-based
# experimentalConditions: human, 0.05 mg/mL peptide, normalized to non-treated cells, read-out: Cell viability
# Experimental: Toxicity of cycled peptides A and B was analyzed on human dermal fibroblasts (HDFa) and adult human epidermal keratinocytes HEKa cells by MTT assay. A stock solution of the peptide was prepared in distilled water at 25 mg/mL. […] Absorbance values were normalized using the data obtained for non-treated cells (control), obtaining the % of viability shown in Tables 1 and 2. […]
Peptide text beside a SMILES is read from it.
resultType: viability at 24 h
Express your answer as a number followed by its unit.

CC(C)C[C@@H]1NC(=O)[C@H](C)NC(=O)[C@H](Cc2c[nH]cn2)NC(=O)[C@H](Cc2c[nH]c3ccccc23)NC(=O)[C@H](Cc2ccccc2)NC(=O)[C@H](CCCNC(=N)N)NC1=O [Peptide B, cyclo-Phe-Trp- His- Ala-Leu-Arg] = 91.9%

From here, focus on the item given below.
Prompt line: Bench note: what viability at 24 h did CC(C)C[C@@H]1NC(=O)[C@H](C)NC(=O)[C@H](CCCNC(=N)N)NC(=O)[C@H](Cc2ccccc2)NC(=O)[C@H](Cc2c[nH]c3ccccc23)NC(=O)[C@H](Cc2c[nH]cn2)NC1=O [Peptide A, cyclo-Trp-Phe-Arg-Ala-Leu-His] (cyclo(ALHWFR)) show?
Response line: 103%
